Would you mind telling me the reported human MASP1 IC50 of each entry?
# testTarget: T1, recombinant human MASP1 (amino acids 297-699, C-terminal His Tag) (human) (UniProt P48740)
# T1 sequence: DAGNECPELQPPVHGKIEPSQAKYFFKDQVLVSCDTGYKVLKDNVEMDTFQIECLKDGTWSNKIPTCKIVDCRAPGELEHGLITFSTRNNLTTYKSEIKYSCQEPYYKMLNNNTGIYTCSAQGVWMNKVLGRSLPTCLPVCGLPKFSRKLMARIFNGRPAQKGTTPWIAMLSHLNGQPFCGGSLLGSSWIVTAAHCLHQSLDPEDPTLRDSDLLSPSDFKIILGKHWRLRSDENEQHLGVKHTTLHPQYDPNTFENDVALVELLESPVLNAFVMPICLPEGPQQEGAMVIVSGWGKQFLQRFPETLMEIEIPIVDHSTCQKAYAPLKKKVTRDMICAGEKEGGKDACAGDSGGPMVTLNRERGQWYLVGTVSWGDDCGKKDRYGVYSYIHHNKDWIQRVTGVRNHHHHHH
# protocolText: cell-based or functional assay
Bridges are numbered along the chain shown (N, C = ends). [ ]: non-standard residue; d: D form. tBuAla = CC(C)(C)C[C@H](N)C(=O)O; NMeC = CN[C@@H](CS)C(=O)O; Abu = CC[C@H](N)C(=O)O; Ahx = NCCCCCC(=O)O; GABA = NCCCC(=O)O
Quick note: unit goes after the number.

Query: Report human MASP1 IC50 for cyclo([Ahx][Abu]ICSRS[tBuAla]PPI[NMeC]IPD) (disulfide 4-12; also: TFA salt) [Example 33: (Ahx)**-(Abu)-IC+SRS-((tBu)A)-PPI-((N-Me)C)+-IPD**] please.
Response: 28 nM

Query: Same thing, different binder: cyclo([GABA]ICSRS[tBuAla]PPI[NMeC]IPD) (disulfide 3-11; also: TFA salt) [Example 36: (Gamma-Abu)**-IC+SRS-((tBu)A)-PPI-((N-Me)C)+-IPD**]
Response: 8.7 nM

Query: Same thing, different binder: cyclo([Ahx]GICSRS[tBuAla]PPI[NMeC]IPD) (disulfide 4-12; also: TFA salt) [Example 30: (Ahx)**-GIC+SRS-((tBu)A)-PPI-((N-Me)C)+-IPD**]
Response: 16 nM
